Each recorded value in this set is attributed to ChEMBL document CHEMBL1961873.

target entity: Serine/threonine-protein kinase Sgk3 (Homo sapiens) (UniProt Q96BR1)
Sequence (Q96BR1 whole entry): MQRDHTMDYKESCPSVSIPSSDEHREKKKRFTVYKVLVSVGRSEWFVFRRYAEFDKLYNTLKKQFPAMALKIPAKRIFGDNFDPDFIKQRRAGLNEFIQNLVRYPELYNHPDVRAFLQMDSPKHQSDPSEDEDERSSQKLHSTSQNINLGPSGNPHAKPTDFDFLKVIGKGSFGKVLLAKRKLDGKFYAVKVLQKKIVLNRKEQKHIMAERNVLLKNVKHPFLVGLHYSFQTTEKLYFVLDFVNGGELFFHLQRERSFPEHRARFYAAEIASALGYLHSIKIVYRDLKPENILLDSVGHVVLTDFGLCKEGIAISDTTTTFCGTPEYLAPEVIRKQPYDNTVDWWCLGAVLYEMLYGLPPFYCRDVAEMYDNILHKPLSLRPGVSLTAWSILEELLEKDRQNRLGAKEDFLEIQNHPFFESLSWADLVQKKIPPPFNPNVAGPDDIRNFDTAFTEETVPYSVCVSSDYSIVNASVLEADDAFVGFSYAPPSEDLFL
run conditions: at 0.1 µM
quantity measured: inhibition (%)
Quick note: give the figure in %, leave out the unit.

Recorded inhibition for `Fc1ccc(-c2ncn(C3CCNCC3)c2-c2ccnc(Oc3ccc4c(c3)OCO4)n2)cc1` with Serine/threonine-protein kinase Sgk3 (Homo sapiens) (UniProt Q96BR1), please?
6.26

# get_value(readout= inhibition, system= Serine/threonine-protein kinase Sgk3 (Homo sapiens) (UniProt Q96BR1)) for `COc1cccc(/C=N/Nc2ncnc3c2cnn3-c2cccc(OC)c2)c1`
2.71

Please state recorded inhibition (tested on Serine/threonine-protein kinase Sgk3 (Homo sapiens) (UniProt Q96BR1)) of `CN(c1ccc(NC(=O)Nc2c(Cl)cccc2Cl)cc1)c1ccnc(Nc2cccc(CS(C)(=O)=O)c2)n1`
3.73

Value wanted: inhibition (Serine/threonine-protein kinase Sgk3 (Homo sapiens) (UniProt Q96BR1)) of entry `NS(=O)(=O)c1ccc(Nc2cc(-c3ccc(O)c(F)c3)n[nH]2)cc1`
0.2

Recall the recorded inhibition for `C[C@@H](Oc1cc(-n2cnc3ccc(OCC4CCN(C)CC4)cc32)sc1C(N)=O)c1ccccc1Cl` with Serine/threonine-protein kinase Sgk3 (Homo sapiens) (UniProt Q96BR1) and state it.
2.38

Give recorded inhibition with Serine/threonine-protein kinase Sgk3 (Homo sapiens) (UniProt Q96BR1) for the following compound: `N#Cc1ccc(Oc2nccc(-c3c(-c4ccc(F)cc4)ncn3C3CCNCC3)n2)cc1`
2.02

Item `COc1cc2ncn(-c3cc(OCCc4ccccc4)c(C(N)=O)s3)c2cc1OC` with Serine/threonine-protein kinase Sgk3 (Homo sapiens) (UniProt Q96BR1) - inhibition?
2.58

Recorded inhibition for `O=C1NC(=O)C(c2cccc(Cl)c2)=C1Nc1ccc(Cl)c(C(=O)O)c1` with Serine/threonine-protein kinase Sgk3 (Homo sapiens) (UniProt Q96BR1), please?
2.77

So what inhibition did `CCc1ccc(Oc2nccc(-c3c(-c4ccc(F)cc4)ncn3C3CCNCC3)n2)cc1` get with Serine/threonine-protein kinase Sgk3 (Homo sapiens) (UniProt Q96BR1)?
-0.71

Lab request: please report inhibition under test system Serine/threonine-protein kinase Sgk3 (Homo sapiens) (UniProt Q96BR1) for `Cc1ccc(C(=O)NC2CCC2)cc1-c1ccc(C(=O)NCC2CC2)cc1`
0.54

Lab note: need inhibition with Serine/threonine-protein kinase Sgk3 (Homo sapiens) (UniProt Q96BR1) for entry `CCS(=O)(=O)c1ccc(OC)c(Nc2ncc(-c3ccccc3Cl)o2)c1` , please look it up.
-0.26

Report inhibition for `CS(=O)(=O)CCNCc1ccc(-c2ccc3ncnc(Nc4ccc(OCc5ccccc5)c(Br)c4)c3c2)o1` tested on Serine/threonine-protein kinase Sgk3 (Homo sapiens) (UniProt Q96BR1).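 Also: reported percentages are averaged inhibition values against SGK3.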
3.29

For Serine/threonine-protein kinase Sgk3 (Homo sapiens) (UniProt Q96BR1), provide inhibition of `NS(=O)(=O)c1ccc(N/N=C2\C(=O)Nc3ccc(-c4cnco4)cc32)cc1` please.
1.34

Item `O=C(NCC1CC1)c1ccc(-c2cccc(C(=O)NC3CC3)c2)cc1` with Serine/threonine-protein kinase Sgk3 (Homo sapiens) (UniProt Q96BR1) - inhibition?
1.28

---

Tested on: Epidermal growth factor receptor (Homo sapiens), P00533 [L861Q]
Sequence (P00533 whole entry L861Q): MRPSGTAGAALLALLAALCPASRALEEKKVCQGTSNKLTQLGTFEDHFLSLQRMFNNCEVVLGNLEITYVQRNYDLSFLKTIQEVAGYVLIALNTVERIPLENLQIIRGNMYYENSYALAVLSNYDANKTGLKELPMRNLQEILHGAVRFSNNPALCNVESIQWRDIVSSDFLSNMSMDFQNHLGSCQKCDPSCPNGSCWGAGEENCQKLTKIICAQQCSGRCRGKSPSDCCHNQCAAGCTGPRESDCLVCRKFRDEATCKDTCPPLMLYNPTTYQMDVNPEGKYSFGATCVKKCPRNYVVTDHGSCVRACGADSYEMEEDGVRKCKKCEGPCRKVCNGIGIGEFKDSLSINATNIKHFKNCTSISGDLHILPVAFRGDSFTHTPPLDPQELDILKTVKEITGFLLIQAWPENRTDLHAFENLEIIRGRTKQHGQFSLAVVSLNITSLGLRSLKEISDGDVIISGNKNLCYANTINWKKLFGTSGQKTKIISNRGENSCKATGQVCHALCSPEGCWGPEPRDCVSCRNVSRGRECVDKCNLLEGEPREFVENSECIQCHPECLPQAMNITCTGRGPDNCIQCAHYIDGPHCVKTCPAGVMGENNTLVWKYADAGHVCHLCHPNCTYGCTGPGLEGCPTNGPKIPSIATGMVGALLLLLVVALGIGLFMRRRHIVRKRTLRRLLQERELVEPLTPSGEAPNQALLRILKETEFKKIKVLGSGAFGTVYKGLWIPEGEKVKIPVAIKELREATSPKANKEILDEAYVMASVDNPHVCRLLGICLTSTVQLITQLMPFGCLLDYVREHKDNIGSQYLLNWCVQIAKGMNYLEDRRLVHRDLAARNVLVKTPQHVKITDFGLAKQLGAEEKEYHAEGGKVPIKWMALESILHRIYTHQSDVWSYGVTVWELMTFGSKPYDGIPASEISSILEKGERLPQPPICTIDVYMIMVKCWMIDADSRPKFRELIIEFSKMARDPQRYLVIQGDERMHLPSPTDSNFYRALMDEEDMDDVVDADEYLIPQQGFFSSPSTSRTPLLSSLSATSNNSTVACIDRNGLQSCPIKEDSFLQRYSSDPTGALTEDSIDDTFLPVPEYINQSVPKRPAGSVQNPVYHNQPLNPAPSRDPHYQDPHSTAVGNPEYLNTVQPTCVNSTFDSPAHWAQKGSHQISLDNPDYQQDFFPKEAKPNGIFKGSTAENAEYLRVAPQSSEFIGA
run conditions: at 1 µM
quantity measured: inhibition (%)
Return type: number; implicit unit %.

>  <structure string>
CCC(=O)Nc1ccc(C)c(-c2ccc(C(=O)NCC3CC3)cc2)c1

>  <target entity>
Epidermal growth factor receptor (Homo sapiens), P00533 [L861Q]

>  <inhibition (%)>
4.44

$$$$

Checklist item: inhibition tested on Epidermal growth factor receptor (Homo sapiens), P00533 [L861Q], entry `Fc1ccc(-c2ncn(C3CCNCC3)c2-c2ccnc(Oc3ccc(F)c(F)c3)n2)cc1` , value?
4.21

Param readout = inhibition; param system = Epidermal growth factor receptor (Homo sapiens), P00533 [L861Q]; param query = `Cc1ccc(C(=O)NC2CCC2)cc1-c1ccc(C(=O)NCC2CC2)cc1` ; response: value
4.15

inhibition of `CS(=O)(=O)CCNCc1cc(-c2cc3c(Nc4ccc(OCc5cccc(F)c5)c(Cl)c4)ncnc3s2)cs1` on Epidermal growth factor receptor (Homo sapiens), P00533 [L861Q]?
57.8
